target: NEDD8 activating enzyme (Homo sapiens, UniProt Q8TBC4); assay: Inhibition of NAE (unknown origin) mediated neddylation assessed as decrease in NEDD8-Ubcl2 adduct formation incubated for 2 hrs in presence of L-glutathione and ATP by HTRF assay; assay type: protein-complex assay
Sequence (Q8TBC4 whole entry): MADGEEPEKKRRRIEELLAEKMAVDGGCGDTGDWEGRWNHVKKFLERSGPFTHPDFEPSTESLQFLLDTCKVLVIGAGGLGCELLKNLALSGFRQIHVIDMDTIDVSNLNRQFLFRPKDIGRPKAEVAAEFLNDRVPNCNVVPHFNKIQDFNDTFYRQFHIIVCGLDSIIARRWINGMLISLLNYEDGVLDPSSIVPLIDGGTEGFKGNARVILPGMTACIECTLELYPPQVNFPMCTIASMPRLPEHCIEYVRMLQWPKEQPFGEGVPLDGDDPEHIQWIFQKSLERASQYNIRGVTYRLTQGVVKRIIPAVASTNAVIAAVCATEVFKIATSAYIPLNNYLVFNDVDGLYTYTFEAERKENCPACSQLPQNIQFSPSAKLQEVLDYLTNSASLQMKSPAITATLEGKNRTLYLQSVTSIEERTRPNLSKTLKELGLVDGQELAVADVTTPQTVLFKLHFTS
Sequence (Q13564 whole entry, further chain): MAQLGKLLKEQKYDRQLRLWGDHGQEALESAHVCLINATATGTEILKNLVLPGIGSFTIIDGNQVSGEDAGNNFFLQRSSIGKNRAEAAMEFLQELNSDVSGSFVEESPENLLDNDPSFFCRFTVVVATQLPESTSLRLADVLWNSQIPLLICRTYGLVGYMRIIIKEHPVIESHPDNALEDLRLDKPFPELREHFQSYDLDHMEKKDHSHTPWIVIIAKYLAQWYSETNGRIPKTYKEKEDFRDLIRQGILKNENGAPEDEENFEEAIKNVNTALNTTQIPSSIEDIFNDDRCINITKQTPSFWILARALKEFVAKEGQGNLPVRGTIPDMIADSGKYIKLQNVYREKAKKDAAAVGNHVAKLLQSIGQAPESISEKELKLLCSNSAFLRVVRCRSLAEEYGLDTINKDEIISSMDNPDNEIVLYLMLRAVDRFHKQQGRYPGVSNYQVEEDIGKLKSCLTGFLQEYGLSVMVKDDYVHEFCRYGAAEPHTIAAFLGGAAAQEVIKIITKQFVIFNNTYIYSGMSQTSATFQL
pIC50: −log10 of the molar value.
Criterion: pIC50 meeting or surpassing 8. Met: class 1. Not met: class 0.

Answered cases to consult:
substance_smiles=NS(=O)(=O)OC[C@@H]1C[C@@H](n2nnc3c(Nc4n[nH]c5ccccc45)ncnc32)C[C@@H]1O cat="class 0"
substance_smiles=CC(C)OC(=O)N1CCC2(CC1)C[C@H](Nc1ncnc3c1nnn3[C@@H]1C[C@@H](COS(N)(=O)=O)[C@@H](O)C1)c1ccccc12 cat="class 1"
substance_smiles=COCC(=O)N[C@H]1Cc2ccccc2[C@H]1Nc1ncnc2c1nnn2[C@@H]1C[C@@H](COS(N)(=O)=O)[C@@H](O)C1 cat="class 0"
substance_smiles=NS(=O)(=O)OC[C@@H]1C[C@@H](n2nnc3c(N[C@H]4CC5(CCN(C(=O)OC(C(F)(F)F)C(F)(F)F)CC5)c5ccccc54)ncnc32)C[C@@H]1O cat="class 0"
substance_smiles=NS(=O)(=O)OC[C@@H]1C[C@@H](n2ncc3c(N[C@H]4CCc5ccccc54)ccnc32)C[C@@H]1O cat="class 0"
substance_smiles=NS(=O)(=O)OC[C@@H]1C[C@@H](n2nnc3c(N[C@H]4CCc5ccccc54)ncnc32)C[C@@H]1O cat="class 1"
substance_smiles=NS(=O)(=O)OC[C@@H]1C[C@@H](n2nnc3c(Nn4ccc5ccccc54)ncnc32)C[C@@H]1O cat="class 0"
substance_smiles=NS(=O)(=O)OC[C@@H]1C[C@@H](n2nnc3c(N[C@H]4CC5(CCN(C(=O)O[C@@H]6CCOC6)CC5)c5ccccc54)ncnc32)C[C@@H]1O cat="class 1"
substance_smiles=CC(C)(C)NC(=O)N1CCC2(CC1)C[C@H](Nc1ncnc3c1nnn3[C@@H]1C[C@@H](COS(N)(=O)=O)[C@@H](O)C1)c1ccccc12 cat="class 1"
substance_smiles=NS(=O)(=O)OC[C@@H]1C[C@@H](n2nnc3c(NCCc4ccccc4)ncnc32)C[C@@H]1O cat="class 0"

q: Reported pIC50 reaches at least 8 for `COCCO[C@H]1Cc2ccccc2[C@H]1Nc1ncnc2c1nnn2[C@@H]1C[C@@H](COS(N)(=O)=O)[C@@H](O)C1` ?
a: class 1

q: // next record `COCC(=O)N[C@@H]1Cc2ccccc2[C@H]1Nc1ncnc2c1nnn2[C@@H]1C[C@@H](COS(N)(=O)=O)[C@@H](O)C1`
a: class 0

q: // next record `COCC(=O)N1CCC2(CC1)C[C@H](Nc1ncnc3c1nnn3[C@@H]1C[C@@H](COS(N)(=O)=O)[C@@H](O)C1)c1ccccc12`
a: class 1

q: // next record `NS(=O)(=O)OC[C@@H]1C[C@@H](n2nnc3c(NC4CCCC4)ncnc32)C[C@@H]1O`
a: class 0
